# tested-target: UniProtKB P24666
# Sequence (P24666 whole entry): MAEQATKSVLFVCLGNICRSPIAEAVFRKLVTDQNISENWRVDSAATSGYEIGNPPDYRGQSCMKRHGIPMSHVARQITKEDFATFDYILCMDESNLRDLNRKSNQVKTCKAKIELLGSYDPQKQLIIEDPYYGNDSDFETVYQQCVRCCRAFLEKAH
# Format: functional
# condition-description: read-out: IC50_Mean
Activity calls are given as the source filed them.
Answer with one of the outcomes t = active, f = inactive

Completed entries (count: 4):
* CCCCC(=O)Nc1ccc(C(=O)NNC(=O)c2ccc(C)c(Br)c2)cc1 | t
* O=C(N/N=C/c1cccc([N+](=O)[O-])c1)c1cc2c(ccc3ccccc32)o1 | t
* CNc1nc2c(-c3ccc(Cl)cc3)nnn2c2ccccc12 | t
* O=C(COc1ccc(/C=N/NC(=O)c2ccccc2O)cc1)Nc1ccccc1 | f

// switching to the query molecule
// query For "N=C1S/C(=C\c2ccc(O)cc2)C(=O)N1c1ccc(F)cc1" , what call appears in the results of this test?
// result f

----------
# tested-target: Streptokinase A (Streptococcus pyogenes serotype M1)
# Sequence (P10520 whole entry): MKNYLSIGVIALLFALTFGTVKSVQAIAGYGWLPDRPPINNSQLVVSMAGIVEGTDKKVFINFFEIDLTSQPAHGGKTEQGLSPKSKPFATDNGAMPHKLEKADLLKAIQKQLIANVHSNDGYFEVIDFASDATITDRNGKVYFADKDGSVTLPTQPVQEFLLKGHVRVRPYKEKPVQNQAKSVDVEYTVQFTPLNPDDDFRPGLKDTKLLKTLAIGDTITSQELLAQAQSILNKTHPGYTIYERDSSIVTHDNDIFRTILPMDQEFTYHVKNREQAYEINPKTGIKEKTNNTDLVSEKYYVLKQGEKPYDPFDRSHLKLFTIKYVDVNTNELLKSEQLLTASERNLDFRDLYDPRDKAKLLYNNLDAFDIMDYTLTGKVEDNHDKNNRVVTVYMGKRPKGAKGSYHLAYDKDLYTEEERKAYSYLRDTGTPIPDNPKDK
# assay-info: viability-normalized secreted streptokinase activity reduction – plasminogen activation absorbance, OD405, dose response (AID 1914);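 also: secreted streptokinase activity via plasminogen activation per viability signal from cell pellet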
# Type: functional, Streptococcus pyogenes M1 GAS
The source made the active and inactive calls.
Please go through the items and note down their EC50.

Sample answers from the record:
* Cc1nn2c(N3CCN(C(=O)c4ccco4)CC3)cc(C(C)(C)C)nc2c1-c1ccccc1 | 8.62 µM (active)
* CC(C)(C)c1cc(NCCCn2ccnc2)n2ncc(-c3ccc(Cl)cc3)c2n1 | > 150 µM (not active)
* CCc1nnc(NC(=O)c2ccc(S(=O)(=O)N3CCCc4ccccc43)cc2)o1 | > 150 µM (not active)
* CCN(CC)CCN(C(=O)C1=COCCO1)c1nc2cc(C)cc(C)c2s1 | > 150 µM (not active)
* COc1ccc(O)c(C(=O)c2cc(SCC(=O)O)c3nc4sc5c(c4c(=O)n3c2)CCCC5)c1 | 16.4 µM (inconclusive)

Would you be so kind as to report EC50 for each listed record?
1. O=C(NC(=S)N1CCN(c2c(Cl)cccc2[N+](=O)[O-])CC1)c1cccs1
2. Oc1ccc(Br)cc1/C=N/Nc1nc(N2CCCCC2)nc(N2CCOCC2)n1
3. COc1ccc(CCN2C(=O)c3[nH]nc(-c4ccccc4O)c3C2c2cccc(Cl)c2)cc1 (stereo unspecified)
4. Oc1ccc(Oc2ccc(Oc3ccc(O)cc3)cc2)cc1

// result
> 150 µM (not active)
33.6 µM (active)
17.1 µM (active)
> 150 µM (not active)

Please give EC50 for each item listed below.
1. Cc1ccc(C)n1-c1sc2c(c1C#N)CCC(C)C2 (stereo unspecified)
2. COc1cc(/C=N/Nc2nc(Nc3ccccc3)nc(-n3nc(C)cc3C)n2)cc(OC)c1OC

// result
1. 14.6 µM (active)
2. > 150 µM (not active)

----------
Would you mind telling me the reported IC50 of each entry?
# System: Vero
# assay-info: cells
# Type: functional, cell-based
# condition-description: Chlorocebus sabaeus
Calls of active or inactive are those of the source.

Examples from the recorded data:
• Cc1ccc(-n2c(SCC(=O)Nc3ncc(Cl)cc3Cl)nc3ccccc32)cc1 = 0.72 µM (active)
• CC(=O)Nc1nnc(SCC(=O)c2ccc3c(c2)Cc2ccccc2-3)s1 = 10.9 µM (active)
• CCc1cc(C(=O)N2CCc3c([nH]c4ccccc34)C2c2ccc(OC)cc2F)no1 (centres undefined) = 1.74 µM (active)

Alright, here's another compound for you.
// query Param item = "Cc1cc(N2CCN(Cc3nc(-c4ccc(Cl)cc4)oc3C)CC2)cc(C)n1" ; retrieve measured IC50.
// result 23.7 µM (active)

----------
# tested-target: UniProt P11413
# Sequence (P11413 whole entry): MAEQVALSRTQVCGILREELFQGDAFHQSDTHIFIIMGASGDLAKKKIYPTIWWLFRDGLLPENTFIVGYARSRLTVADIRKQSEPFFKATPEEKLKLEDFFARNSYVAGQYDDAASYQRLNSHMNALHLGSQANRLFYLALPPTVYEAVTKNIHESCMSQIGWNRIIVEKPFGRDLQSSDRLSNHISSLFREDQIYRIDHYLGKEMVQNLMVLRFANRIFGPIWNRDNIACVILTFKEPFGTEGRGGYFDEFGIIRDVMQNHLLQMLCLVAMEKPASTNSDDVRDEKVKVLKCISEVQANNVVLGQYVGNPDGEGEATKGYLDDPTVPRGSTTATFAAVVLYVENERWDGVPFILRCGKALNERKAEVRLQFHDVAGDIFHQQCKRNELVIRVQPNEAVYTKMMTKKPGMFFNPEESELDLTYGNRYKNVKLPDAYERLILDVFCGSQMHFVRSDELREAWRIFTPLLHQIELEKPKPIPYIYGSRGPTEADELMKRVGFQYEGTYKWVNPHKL
# assay-info: inhibition of Homo sapiens G6PD, dose series – biochemical, fluorescence, selectivity assay for P. falciparum G6PD inhibitor project, dose response (AID 504792)
# Type: functional
The source made the active and inactive calls.
Thanks in advance; please answer with one of these: true (1) for active, false (0) for inactive

Past entries and their recorded results:
• Cc1ccc(NC(=O)c2cc(C)n(-c3ccccc3)c2C)cc1 = false (0)
• O=C(O)c1ccccc1NS(=O)(=O)c1cccc(-n2sc3ccccc3c2=O)c1 = true (1)

// query For "Cc1cc(O)c(C(C)C)cc1N=Cc1ccccc1[N+](=O)[O-]" , what call appears in the results of this test?
// result false (0)

// query Try "COc1cc(CNc2ccc(N3CCCC3)cc2)ccc1OCc1ccccc1F" next.
// result false (0)

// query // repeat for COC(=O)CCC(=O)OC1(C)C(=O)C2=CN(c3ccc(OC)cc3)C(c3ccc(OC)cc3)=CC2=C(Br)C1=O (stereo unspecified) and report
// result false (0)

// query Next record, please: "Cc1ccc(C(=O)NCC(=O)NCC(=O)OCC(=O)c2ccc([N+](=O)[O-])cc2)cc1"
// result false (0)

----------
# assay-info: cells
# Type: functional
Activity calls are given as the source filed them.
measured-property: IC50

Reference set, count: 3
• O=C(C#Cc1ccccc1)c1ccco1 = 1.32 µM (active)
• C/C(=N\NC(=O)c1cc([N+](=O)[O-])cc([N+](=O)[O-])c1)c1ccco1 = 3.35 µM (active)
• CN(C)CC/C=C1\c2ccccc2Sc2cc(F)c(Cl)cc21 = 20.8 µM (active)

// query Which IC50 value is on record for "O=C(CCS(=O)(=O)c1ccccc1)Nc1nc(-c2ccccn2)cs1" ?
// result 4.53 µM (active)

----------
# tested-target: UniProtKB P38532
# assay-info: enhancement of HSF1-driven luciferase signal – cell-based, NIH3T3, luminescence, dose retest, confirmation (AID 435004);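 also: stress induced by proteasome inhibitor MG132 added 30 min after compound; luciferase reporter driven by HSF1 response element in NIH3T3 cells; actives raise luminescence as potentiators of the MG132 stress response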
# Type: functional
Activity calls are given as the source filed them.
measured-property: EC50

Use the examples below as a reference point.
- COc1ccc(S(=O)(=O)N(C)c2ccc(C(=O)NCc3ccccn3)cc2)cc1: > 260 µM (inactive)
- N#CCC(CNc1ncc(C(F)(F)F)cc1Cl)OC(=O)c1ccc(Cl)cc1Cl (configuration not stated): 42.6 µM (active)
- CCC(C)C(=O)Nc1ncc2c(n1)CC(c1cccs1)CC2=O (configuration not stated): > 260 µM (inactive)

Take each entry in turn and give its EC50.
1. O=C(CSc1nc(O)cc(=O)n1-c1ccccc1)Nc1ccc2c3c(cccc13)CC2
2. Cc1nc2nc(-c3ccc(F)cc3)cn2nc1C
3. Fc1cccc(-c2nnn3c2nc(Cl)c2ccccc23)c1
4. Cc1ccc(NC(=O)c2sc3ncn(CC(=O)N4CCOCC4)c(=O)c3c2C)c(Br)c1

// result
1: > 260 µM (inactive); 2: > 260 µM (inconclusive); 3: 13.6 µM (inconclusive); 4: > 260 µM (inactive)

----------
# tested-target: Kappa-type opioid receptor (Homo sapiens, UniProt P41145)
# Sequence (P41145 whole entry): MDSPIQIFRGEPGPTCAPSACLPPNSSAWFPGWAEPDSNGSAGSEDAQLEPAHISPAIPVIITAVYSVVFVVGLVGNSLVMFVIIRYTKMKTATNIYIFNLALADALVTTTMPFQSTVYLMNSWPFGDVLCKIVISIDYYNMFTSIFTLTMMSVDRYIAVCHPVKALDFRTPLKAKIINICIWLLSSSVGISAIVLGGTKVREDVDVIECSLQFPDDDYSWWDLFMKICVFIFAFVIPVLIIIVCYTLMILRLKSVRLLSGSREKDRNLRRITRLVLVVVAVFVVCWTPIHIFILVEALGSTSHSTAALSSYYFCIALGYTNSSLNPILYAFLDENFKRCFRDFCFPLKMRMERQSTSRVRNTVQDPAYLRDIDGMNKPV
# Type: functional
pIC50: −log10 of the molar value.
measured-property: pIC50

// query Which measured pIC50 value corresponds to "COc1cc(/C=C2\SC(=S)N(Nc3ccccc3)C2=O)ccc1O" ?
// result < 4.49

----------
# tested-target: Heat shock factor protein 1 (Mus musculus, UniProt P38532)
# Sequence (P38532 whole entry): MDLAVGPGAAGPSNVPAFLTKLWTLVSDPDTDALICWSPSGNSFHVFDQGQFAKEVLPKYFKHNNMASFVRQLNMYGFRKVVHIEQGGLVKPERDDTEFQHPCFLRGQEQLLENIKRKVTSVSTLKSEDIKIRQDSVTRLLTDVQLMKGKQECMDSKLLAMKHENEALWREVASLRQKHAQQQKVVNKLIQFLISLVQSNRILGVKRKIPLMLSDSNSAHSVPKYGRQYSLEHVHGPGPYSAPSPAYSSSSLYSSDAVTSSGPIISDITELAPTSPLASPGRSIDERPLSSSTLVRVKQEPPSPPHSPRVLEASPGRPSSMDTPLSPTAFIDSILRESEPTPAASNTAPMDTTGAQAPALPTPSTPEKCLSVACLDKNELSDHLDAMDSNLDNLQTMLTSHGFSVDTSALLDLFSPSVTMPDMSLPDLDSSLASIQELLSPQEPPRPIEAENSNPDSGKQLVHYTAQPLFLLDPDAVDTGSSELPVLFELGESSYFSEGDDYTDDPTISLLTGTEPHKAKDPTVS
# assay-info: decrease of HSF1-responsive luciferase luminescence – cell-based, NIH3T3, dose retest, confirmation (AID 2382);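 also: NIH3T3 fibroblasts with HSF1-driven luciferase reporter stressed by proteasome inhibitor MG132; luminescence from HSF1-driven luciferase expression after 8 hours of MG132 stress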
# Format: functional
Calls of active or inactive are those of the source.
measured-property: EC50

* CCCC(C)n1nc(O)c2c1NC(=O)CSC2c1ccc(OC)c(OC)c1 (stereo unspecified) | > 195 µM (not active)
* Cn1cc(Cl)c(-c2nnc(S)n2-c2ccc(F)cc2)n1 | > 195 µM (not active)
* Cc1ccc(CN2CCN(Cc3cccc(OCCO)c3)CC2CCO)o1 (stereo unspecified) | > 195 µM (not active)
* O=C(C#Cc1ccccc1)c1ccco1 | 6.57 µM (active)
* c1cc2c(cc1C1CCCN1)OCCCO2 (stereo unspecified) | > 195 µM (not active)

Below: the item to evaluate.
// query For Heat shock factor protein 1 (Mus musculus, UniProt P38532), provide EC50 of "CCc1ccc(-c2nc(CSCC(=O)NCc3ccco3)c(C)o2)cc1" please.
// result 0.462 µM (active)

----------
Kindly supply the reported IC50 values for the records listed here.
# tested-target: Sentrin-specific protease 6 (Homo sapiens);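 also: Luminescence-based dose-response confirmatory assay of SENP6 inhibition, following up an ultra-high-throughput screen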
# Sequence (Q9GZR1 whole entry): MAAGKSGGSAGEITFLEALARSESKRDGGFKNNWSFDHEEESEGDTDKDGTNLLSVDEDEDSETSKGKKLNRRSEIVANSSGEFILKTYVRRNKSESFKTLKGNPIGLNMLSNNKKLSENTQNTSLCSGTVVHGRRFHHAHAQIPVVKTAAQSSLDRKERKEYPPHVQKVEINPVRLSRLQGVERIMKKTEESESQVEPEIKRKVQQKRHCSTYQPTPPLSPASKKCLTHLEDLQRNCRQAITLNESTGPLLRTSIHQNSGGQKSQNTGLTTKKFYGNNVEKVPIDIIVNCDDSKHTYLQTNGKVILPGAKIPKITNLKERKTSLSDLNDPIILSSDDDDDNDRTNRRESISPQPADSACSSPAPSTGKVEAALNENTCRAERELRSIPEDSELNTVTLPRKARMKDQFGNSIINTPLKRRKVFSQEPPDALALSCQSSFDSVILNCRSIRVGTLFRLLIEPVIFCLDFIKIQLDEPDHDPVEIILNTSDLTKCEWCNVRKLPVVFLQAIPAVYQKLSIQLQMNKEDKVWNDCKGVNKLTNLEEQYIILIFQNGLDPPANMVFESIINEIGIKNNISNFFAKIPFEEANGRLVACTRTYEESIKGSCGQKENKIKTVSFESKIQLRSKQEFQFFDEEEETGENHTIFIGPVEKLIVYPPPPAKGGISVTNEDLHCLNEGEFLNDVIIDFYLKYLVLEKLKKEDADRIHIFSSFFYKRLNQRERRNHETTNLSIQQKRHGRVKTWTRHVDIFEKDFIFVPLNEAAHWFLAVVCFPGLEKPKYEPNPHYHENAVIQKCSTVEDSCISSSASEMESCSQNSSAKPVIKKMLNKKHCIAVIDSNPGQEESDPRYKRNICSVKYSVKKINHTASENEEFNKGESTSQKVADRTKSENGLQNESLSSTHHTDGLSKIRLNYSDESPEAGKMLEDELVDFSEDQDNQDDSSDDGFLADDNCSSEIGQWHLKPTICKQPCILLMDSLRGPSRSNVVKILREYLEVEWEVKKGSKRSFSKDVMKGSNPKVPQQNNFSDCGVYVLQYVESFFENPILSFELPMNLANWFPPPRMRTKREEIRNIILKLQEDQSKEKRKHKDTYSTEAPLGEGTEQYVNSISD
# Assay type: functional
Activity calls are given as the source filed them.

Example molecules with recorded IC50:
• O=C(Nc1ccc2c(c1)CCC2)c1cccc(S(=O)(=O)Nc2ccccc2Cl)c1 = 47.3 µM (active)
• COc1ccc(C(=O)Nc2cccc(C(=O)O)c2)cc1S(=O)(=O)N1CCCC1 = 22.1 µM (active)
• CCOC(=O)/C(=N\Nc1ncnc2ccccc12)c1ccc(C)cc1 = 11.7 µM (active)
• Cc1ccc(C(=O)Nc2cccc3cccnc23)cc1C = 14.5 µM (active)
• O=[N+]([O-])c1ccc(CSc2nc3ccccc3o2)cc1 = 23.3 µM (active)
• N#Cc1c(NC(=O)CSc2nc[nH]n2)sc2c1CCCCC2 = 4 µM (active)

Field: next molecule
// query What does the record list as IC50 for CCCC1CCC(c2ccc(OCC)cc2)=CC1=O (configuration not stated) ?
// result 29.6 µM (active)
